Ref: PubChem BioAssay (NCATS)

// reported activity change, negative = inhibition per item
biological target: Cytochrome P450 3A4 (Homo sapiens) (UniProt P08684); experiment: qHTS Assay for Inhibitors and Substrates of Cytochrome P450 3A4 (AID 884); details: recombinant CYP3A4, Luciferin-PPXE luminescence; series mostly up to 57.1 µM; note: % is set by controls: 0 for no effect and ±100 for the full control effect; nearly all actives have a fitted effect of over 50% in size
Sequence (P08684 whole entry, looked up): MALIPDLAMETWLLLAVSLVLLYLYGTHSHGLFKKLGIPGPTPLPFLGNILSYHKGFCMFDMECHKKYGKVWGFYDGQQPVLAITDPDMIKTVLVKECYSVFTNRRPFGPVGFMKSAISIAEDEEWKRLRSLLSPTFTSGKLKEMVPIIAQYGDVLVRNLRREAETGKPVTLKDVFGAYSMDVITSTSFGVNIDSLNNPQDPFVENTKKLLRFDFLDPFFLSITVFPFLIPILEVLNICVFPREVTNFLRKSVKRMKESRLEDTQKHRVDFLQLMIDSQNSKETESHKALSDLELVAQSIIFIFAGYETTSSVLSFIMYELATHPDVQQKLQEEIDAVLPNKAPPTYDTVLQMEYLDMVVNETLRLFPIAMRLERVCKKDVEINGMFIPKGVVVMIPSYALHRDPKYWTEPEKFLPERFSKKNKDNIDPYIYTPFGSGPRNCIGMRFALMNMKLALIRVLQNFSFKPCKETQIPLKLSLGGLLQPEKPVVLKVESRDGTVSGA
Records with an inconclusive call do not appear. Active and inactive are the calls of the source. Calls come from the whole dose curve; as a rule, active = well fitted inhibition curve with a large enough effect; inconclusive = small, poorly fitted or top-dose-only effect; inactive = no such curve, though single readings can be large or run the other way.
quantity.name: activity change, negative = inhibition

INSERT INTO measurements (compound, study_target, meas_value) VALUES
  ('C=CCc1cccc(C2NC(C(=O)O)CCC2C)c1 (stereo unspecified)', 'Cytochrome P450 3A4 (Homo sapiens) (UniProt P08684)', '-20.1% [at 11.4 µM] (inactive)'),
  ('COC(=O)C1=C(C)N(Cc2ccccc2)C2=C3C(=O)N(C)C(=O)C3[C@@](O)(C(=O)OC)C(=O)N2C1c1ccccc1 (stereo partly specified)', 'Cytochrome P450 3A4 (Homo sapiens) (UniProt P08684)', '-21.3% [at 11.4 µM] (inactive)'),
  ('Cc1ccc(C#CC2C=CC(Oc3ccc4c(c3)OCO4)C(CO)O2)c(C)c1 (stereo unspecified)', 'Cytochrome P450 3A4 (Homo sapiens) (UniProt P08684)', '-16.9% [at 11.4 µM] (inactive)'),
  ('CC(=O)Nc1ccc(C2NC(C(=O)O)CCC2C)cc1 (stereo unspecified)', 'Cytochrome P450 3A4 (Homo sapiens) (UniProt P08684)', '-21% [at 11.4 µM] (inactive)'),
  ('CCC1OCCC=CC1C (stereo unspecified)', 'Cytochrome P450 3A4 (Homo sapiens) (UniProt P08684)', '-15% [at 11.4 µM] (inactive)'),
  ('CC1CCC(C(=O)O)NC1c1ccc(-c2ccco2)cc1 (stereo unspecified)', 'Cytochrome P450 3A4 (Homo sapiens) (UniProt P08684)', '-4.5% [at 11.4 µM] (inactive)'),
  ('COC(=O)NC(CC(C)=O)c1ccc(Cl)cc1 (stereo unspecified)', 'Cytochrome P450 3A4 (Homo sapiens) (UniProt P08684)', '-19.1% [at 11.4 µM] (inactive)'),
  ('COC(=O)C1C(C)OC(=O)NC1c1ccccc1 (stereo unspecified)', 'Cytochrome P450 3A4 (Homo sapiens) (UniProt P08684)', '-16.6% [at 11.4 µM] (inactive)'),
  ('COc1cc(C2NC(C(=O)O)Cc3c2[nH]c2ccccc32)cc(OC)c1OC (stereo unspecified)', 'Cytochrome P450 3A4 (Homo sapiens) (UniProt P08684)', '-17.2% [at 11.4 µM] (inactive)'),
  ('CCOC(=O)OCC1OC(c2ccc(C(C)=O)cc2)C=CC1OC(=O)OCC (stereo unspecified)', 'Cytochrome P450 3A4 (Homo sapiens) (UniProt P08684)', '-24.1% [at 11.4 µM] (inactive)'),
  ('C=CCOCC1CN2C(CCC(C)C2c2ccc(Br)cc2)C(=O)O1 (stereo unspecified)', 'Cytochrome P450 3A4 (Homo sapiens) (UniProt P08684)', '-11.7% [at 11.4 µM] (inactive)');

---

assay: qHTS for Inhibitors of Plasmodium falciparum (7G8) proliferation (AID 504316); note: nearly all actives have a fitted effect of over 65% in size; settings: P. falciparum 7G8 in erythrocytes, SYBR Green DNA, 72 h; series mostly up to 6.7 µM
Results filed as inconclusive are left out. Calls of active or inactive are those of the source. Calls follow the shape of the dose curve; as a rule, active = well fitted inhibition curve with a large enough effect; inconclusive = small, poorly fitted or top-dose-only effect; inactive = flat fitted curve, though single readings scatter.
Labels: true = active, false = inactive

INSERT INTO assay_data (molecule, qualitative_label) VALUES
  ('CCN1C(=O)N[C@@H](c2cccc(C(F)(F)F)c2)C(C(=O)OC)=C1C', 'false'),
  ('COC(=O)C1=C(C(=O)OC)[C@@H]2N(Cc3ccccc3)c3ccccc3[C@@]23CCC(=O)N(CC2CCCCC2)C3=N1', 'false'),
  ('COC(=O)[C@]1(C)C=C[C@@H](C)[C@H](c2ccccc2Br)N1C(=O)C(F)(F)F', 'false'),
  ('C=CCN1C=C2C(=O)C(C)(OC(=O)CCC(=O)OC)C(=O)C(Br)=C2C=C1c1ccc(OC)cc1 (configuration not stated)', 'false'),
  ('COC(=O)C1=C(C(=O)OC)[C@@H]2N(Cc3ccccc3)c3ccccc3[C@@]23C[C@@H](C(=O)OC)N(S(=O)(=O)c2ccc(C(F)(F)F)cc2)C3=N1', 'true'),
  ('CCCC[C@]12Cc3cc(OC)c(OC)cc3[C@H](O1)C1=C(O2)C(=O)c2ccccc2C1=O', 'true'),
  ('COC(=O)C1=C(C(=O)OC)[C@@H]2N(C)c3ccc(OC)cc3[C@@]23C[C@@H](C(=O)OC)N(S(=O)(=O)c2ccc4c(c2)OCCN4C)C3=N1', 'false'),
  ('CCCCC1=CC2=C(c3ccco3)C(=O)C(C)(OC(=O)c3ccc(OC)cc3)C(=O)C2=CN1CCc1c[nH]c2ccccc12 (configuration not stated)', 'false'),
  ('COC(=O)C1=C(C(=O)OC)[C@@H]2Nc3ccccc3[C@@]23C[C@@H](C(=O)OC)N(C(=O)c2cccs2)C3=N1', 'false'),
  ('C=CC1=C2C=C(C3CC3)N(C3CC3)C=C2C(=O)C(C)(OC(=O)c2ccco2)C1=O (configuration not stated)', 'false'),
  ('COC(=O)[C@@H](NC(=O)N1CCc2nc(-c3ccc(OC)cc3C)c3c(c2C1)CO[C@@H](c1ccccc1)C3)C(C)C', 'true'),
  ('COC/C=C/C1=CC2=CC(=O)C(C)(OC(=O)c3cnc4ccccc4n3)C(=O)C2=CN1CCOC (configuration not stated)', 'false'),
  ('CCCCc1nc2c(c3c1C[C@H](C)OC3)CN(C(=O)Nc1cccc(C#N)c1)CC2', 'false'),
  ('COc1ccc([C@]23Cc4cc(C#N)ccc4[C@H](O2)c2c(cc(-c4ccccc4)oc2=O)O3)cc1', 'true'),
  ('CCOC(=O)CN1C(=O)N(CC)C(C)=C(C(=O)OC)[C@@H]1c1ccccc1', 'false'),
  ('CCOC(=O)[C@@]1([C@@H](NC(=O)OC)c2cccc(F)c2)CCCC1=O', 'false'),
  ('CC(=O)C1=C(C)N(Cc2ccccc2)C(=O)N[C@H]1c1ccco1', 'false');

---

tested on: HB3; assay: qHTS profiling for inhibitors of Plasmodium falciparum proliferation (AID 504749);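 note: 0% = DMSO vehicle and full inhibition = artemisinin control; nearly all actives have a fitted effect of over 60% in size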; conditions: P. falciparum in erythrocytes, SYBR Green DNA, 72 h; series mostly up to 28.7 µM
Records with an inconclusive call do not appear. Activity calls are given as the source filed them. The call rests on the fitted dose curve; in most records, active means well fitted inhibition curve with a large enough effect; inconclusive means small, poorly fitted or top-dose-only effect; inactive means flat fitted curve, though single readings scatter. Bridge positions count the residues as written; N and C are the ends. Square brackets hold non-standard residues; d marks the D form. Peptide text beside a SMILES is read from it. * marks the point of attachment. ξ: configuration not given here. ξDab(CH2SO3H) = NC(CCNCS(=O)(=O)O)C(=O)O; Heptanoyl(6-Me) = CC(C)CCCCC(=O)*; Dab = NCC[CH](N)C(=O)O
quantity.name: outcome

INSERT INTO results (compound, meas_value) VALUES
  ('CCOC(=O)C(CS)NCCN[C@@H](CS)C(=O)OCC (stereo partly drawn)', 'inactive'),
  ('CCC(C)C1NC(=O)C(CCNCS(=O)(=O)O)NC(=O)C(NC(=O)C(CCNCS(=O)(=O)O)NC(=O)C(NC(=O)C(CCNCS(=O)(=O)O)NC(=O)CCCCC(C)C)C(C)O)CCNC(=O)C(C(C)O)NC(=O)C(CCNCS(=O)(=O)O)NC(=O)C(CCNCS(=O)(=O)O)NC(=O)C(C(C)CC)NC1=O (stereo not drawn) ({Heptanoyl(6-Me)}-[ξDab(CH2SO3H)]T[ξDab(CH2SO3H)][Dab][ξDab(CH2SO3H)]II[ξDab(CH2SO3H)][ξDab(CH2SO3H)]T; lactam 4-C; configuration not given here)', 'inactive'),
  ('COc1ccc(-c2nc3ccc(C4=C(C)CC(=O)NN4)cc3[nH]2)cc1', 'inactive');

---

target: Peroxisome proliferator-activated receptor alpha (Homo sapiens); test: qHTS assay for small molecule agonists of the peroxisome proliferator-activated receptor alpha (PPARalpha) signaling pathway (AID 651778); details: PathHunter PPARalpha complementation, chemiluminescence, 6 h; stronger effect = higher value; note: % of control where 0% means no effect
// reported max response per item
quantity.name: max response (%)

INSERT INTO measurements (compound, quantity_name, value_units, meas_value) VALUES
  ('CC1(C)C(=O)NC(=O)N1CO', 'max response', '%', -1.57),
  ('O=C(O)c1ccc(C(=O)O)c(C(=O)O)c1', 'max response', '%', -1.17),
  ('CC/C=C\CCOC(=O)c1ccccc1O', 'max response', '%', 0.589),
  ('O=c1n(CCO)c(=O)n(CCO)c(=O)n1CCO', 'max response', '%', 0.0492),
  ('C/C=C/C=C/CCCCCCCO', 'max response', '%', 0.881),
  ('CCC/C(=N\OCC)C1=C(O)CC(O)(CC(C)S(=O)(=O)CC)CC1=O (stereo not drawn)', 'max response', '%', -0.0131),
  ('O=C(O)C1(C(=O)Nc2ccc(Cl)cc2Cl)CC1', 'max response', '%', 0.116),
  ('O=C(Nc1ccccc1)c1cc(Cl)ccc1O', 'max response', '%', 0.537),
  ('COC(OC)(C(=O)c1ccccc1)c1ccccc1', 'max response', '%', -0.253),
  ('CCCCC(CC)COC(=O)CS (stereo not drawn)', 'max response', '%', -1.44),
  ('BrC1CCC(Br)C(Br)CCC(Br)C(Br)CCC1Br (stereo not drawn)', 'max response', '%', -0.0514),
  ('CCCCC(CC)COC(=O)/C=C\C(=O)OCC(CC)CCCC (stereo not drawn)', 'max response', '%', -0.882),
  ('COC(=O)c1ccc(I)cc1S(=O)(=O)NC(=O)Nc1nc(C)nc(OC)n1', 'max response', '%', -0.424),
  ('CCCCCOC(=O)COc1cc(N2C(=O)C3=C(CCCC3)C2=O)c(F)cc1Cl', 'max response', '%', 1.28),
  ('C=C(C)C(=O)OCC[N+](C)(C)C', 'max response', '%', -2.12),
  ('O=c1[nH]c(=O)c2[nH]cnc2[nH]1', 'max response', '%', -2.27),
  ('CCCCOCCOCCOC(C)=O', 'max response', '%', -0.313),
  ('CC/C=C/CCCCCCCCCCOC(C)=O', 'max response', '%', -1.44),
  ('CC1=CC(=O)CC(C)(C)C1', 'max response', '%', 0.525),
  ('CCCCCCCC/C=C\CCCCCCCCO', 'max response', '%', 8.71),
  ('CCO[Si](CCC#N)(OCC)OCC', 'max response', '%', -0.819),
  ('CC1(C)[C@@H]([C@@H](Br)C(Br)(Br)Br)[C@H]1C(=O)O[C@H](C#N)c1cccc(Oc2ccccc2)c1', 'max response', '%', -5.06),
  ('C=CCOC(=O)CC(C)C', 'max response', '%', -0.161),
  ('N[C@@H]1[C@@H](O)[C@H](O)[C@@H](CO)O[C@H]1O', 'max response', '%', -1.62),
  ('C=CCCCCCCCCCC', 'max response', '%', -0.224),
  ('C1=C/CC/C=C/CC/C=C/CC/1', 'max response', '%', 0.0417),
  ('CC/C(=C(\c1ccc(O)cc1)c1ccc(OCCN(C)C)cc1)c1ccccc1', 'max response', '%', -2.87),
  ('CC1=CC2C3CC(C=C3C)C2C1 (stereo not drawn)', 'max response', '%', -1.19);
